- System: NMDA receptors (NMDARs)
- Assay details: Whole-cell patch-clamp of NMDA-activated currents in primary cultures of cortical neurons
- Assay type: cell-based, rat
- Measurement conditions: read-out: IC50 for ATL inhibition of NMDAR currents; −70 mV, 4 mM Ca2+
Property: IC50 (nM)
Give your result in nM as a bare value.

query: Requested field: IC50. Item: CN(C)CCC=C1c2ccccc2CCc2ccccc21
result: 720

---

- System: NMDA receptors (NMDARs)
- Assay details: Whole-cell patch-clamp of NMDA-activated currents in primary cultures of cortical neurons
- Assay type: cell-based, rat
- Measurement conditions: −70 mV, 0.25 mM Ca2+, Eq. 5; read-out: apparent equilibrium dissociation constant (Kd = koff/kon)
Property: Kd
Write the figure, then the unit, nothing else.

query: Requested field: Kd. Item: CN(C)CCC=C1c2ccccc2CCc2ccccc21
result: 128 µM
